biological target: MAO-A (Homo sapiens, UniProt P21397); experiment: In vitro MAO-A inhibition assay (fluorometric); type: biochemical; conditions: 10^–4 M
Sequence (P21397 whole entry): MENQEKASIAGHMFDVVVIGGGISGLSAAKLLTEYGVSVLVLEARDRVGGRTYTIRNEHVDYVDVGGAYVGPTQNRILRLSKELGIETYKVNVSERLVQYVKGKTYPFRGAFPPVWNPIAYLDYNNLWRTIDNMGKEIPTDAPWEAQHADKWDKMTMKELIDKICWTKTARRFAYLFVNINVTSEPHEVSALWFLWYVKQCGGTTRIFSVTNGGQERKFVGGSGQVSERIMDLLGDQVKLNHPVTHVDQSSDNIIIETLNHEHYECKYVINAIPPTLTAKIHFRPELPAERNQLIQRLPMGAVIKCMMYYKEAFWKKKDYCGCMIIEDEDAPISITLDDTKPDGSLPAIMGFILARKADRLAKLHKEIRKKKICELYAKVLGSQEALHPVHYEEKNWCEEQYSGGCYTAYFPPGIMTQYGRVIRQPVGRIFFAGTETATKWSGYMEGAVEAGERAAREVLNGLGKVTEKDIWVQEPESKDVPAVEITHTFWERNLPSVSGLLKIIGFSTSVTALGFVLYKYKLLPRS
measure: inhibition at 100 µM (%)
Answers are plain numbers, in %.

Please give inhibition at 100 µM, item by item, for the list that follows.
1. COCCN1CCN(CC(=O)Nc2ccc(/C=C3\Cc4cc(OC)c(OC)cc4C3=O)cc2)CC1 [D15]
2. COc1ccc2c(c1)C/C(=C\c1ccc(NC(=O)CN3CCN(CCCO)CC3)cc1)C2=O [D19]
3. C#CCN1CCN(CC(=O)Nc2ccc(/C=C3\Cc4ccc(OC)cc4C3=O)cc2)CC1 [D11]
4. COc1cc2c(cc1OC)C(=O)/C(=C/c1ccc(NC(=O)CN(C)CCCN(C)C)cc1)C2 [D39]
5. COc1ccc2c(c1)C/C(=C\c1ccc(NC(=O)CN(C)CCCN(C)C)cc1)C2=O [D37]
6. CCN1CCN(CC(=O)Nc2ccc(/C=C3\Cc4ccc(OC)cc4C3=O)cc2)CC1 [D5]
7. C=CCN1CCN(CC(=O)Nc2ccc(/C=C3\Cc4cc(OC)c(OC)cc4C3=O)cc2)CC1 [D9]

20.3
25.3
25.5
36.2
37.8
24.7
24.5

Please give inhibition at 100 µM, item by item, for the list that follows.
1. CCCN(C)CC(=O)Nc1ccc(/C=C2\Cc3cc(OC)c(OC)cc3C2=O)cc1 [D30]
2. COc1ccc2c(c1)C(=O)/C(=C/c1ccc(NC(=O)CN3CCN(C)CC3)cc1)C2 [D2]
3. CCN(CC)CCN(CC)CC(=O)Nc1ccc(/C=C2\Cc3ccc(OC)cc3C2=O)cc1 [D41]

[28.3, 27.7, 22.5]

Please give inhibition at 100 µM, item by item, for the list that follows.
1. C#CCN1CCN(CC(=O)Nc2ccc(/C=C3\Cc4cc(OC)c(OC)cc4C3=O)cc2)CC1 [D12]
2. C#CCN(C)CC(=O)Nc1ccc(/C=C2\Cc3ccc(OC)cc3C2=O)cc1 [D32]
3. COc1cc2c(cc1OC)C(=O)/C(=C/c1ccc(NC(=O)CN(C)CCN(C)C)cc1)C2 [D36]
4. CCN1CCN(CC(=O)Nc2ccc(/C=C3\Cc4cc(OC)ccc4C3=O)cc2)CC1 [D4]

45.1
29.7
43
20.9

Please give inhibition at 100 µM, item by item, for the list that follows.
1. CCN(CC)CCN(CC)CC(=O)Nc1ccc(/C=C2\Cc3cc(OC)c(OC)cc3C2=O)cc1 [D42]
2. COc1cc2c(cc1OC)C(=O)/C(=C/c1ccc(NC(=O)CN3CCN(CCCN(C)C)CC3)cc1)C2 [D27]
3. COc1ccc2c(c1)C/C(=C\c1ccc(NC(=O)CN3CCN(CCCN(C)C)CC3)cc1)C2=O [D25]
4. COCCN1CCN(CC(=O)Nc2ccc(/C=C3\Cc4cc(OC)ccc4C3=O)cc2)CC1 [D13]
5. COc1ccc2c(c1)C(=O)/C(=C/c1ccc(NC(=O)CN(C)CCN(C)C)cc1)C2 [D35]
6. COc1ccc2c(c1)C(=O)/C(=C/c1ccc(NC(=O)CN3CCN(CCCN(C)C)CC3)cc1)C2 [D26]
7. COc1cc2c(cc1OC)C(=O)/C(=C/c1ccc(NC(=O)CN3CCN(CCO)CC3)cc1)C2 [D18]

[40.2, 44.4, 43.1, 35.5, 21.7, 44.3, 28.4]

Please give inhibition at 100 µM, item by item, for the list that follows.
1. COc1cc2c(cc1OC)C(=O)/C(=C/c1ccc(NC(=O)CN3CCN(CCCO)CC3)cc1)C2 [D21]
2. COc1ccc2c(c1)C(=O)/C(=C/c1ccc(NC(=O)CN3CCN(CCO)CC3)cc1)C2 [D17]
3. C#CCN(C)CC(=O)Nc1ccc(/C=C2\Cc3cc(OC)c(OC)cc3C2=O)cc1 [D33]

[26.9, 34.4, 29.9]

Please give inhibition at 100 µM, item by item, for the list that follows.
1. COc1ccc2c(c1)C(=O)/C(=C/c1ccc(NC(=O)CN3CCN(CCCO)CC3)cc1)C2 [D20]
2. COCCN1CCN(CC(=O)Nc2ccc(/C=C3\Cc4ccc(OC)cc4C3=O)cc2)CC1 [D14]
3. COc1ccc2c(c1)C/C(=C\c1ccc(NC(=O)CN3CCN(CCN(C)C)CC3)cc1)C2=O [D22]

[43.3, 27.9, 37.5]

Please give inhibition at 100 µM, item by item, for the list that follows.
1. COc1cc2c(cc1OC)C(=O)/C(=C/c1ccc(NC(=O)CN3CCN(C)CC3)cc1)C2 [D3]
2. C=CCN1CCN(CC(=O)Nc2ccc(/C=C3\Cc4cc(OC)ccc4C3=O)cc2)CC1 [D7]
3. C#CCN(C)CC(=O)Nc1ccc(/C=C2\Cc3cc(OC)ccc3C2=O)cc1 [D31]
4. COc1ccc2c(c1)C(=O)/C(=C/c1ccc(NC(=O)CN(C)CCCN(C)C)cc1)C2 [D38]
5. COc1ccc2c(c1)C(=O)/C(=C/c1ccc(NC(=O)CN3CCN(CCN(C)C)CC3)cc1)C2 [D23]
6. COc1ccc2c(c1)C/C(=C\c1ccc(NC(=O)CN(C)CCN(C)C)cc1)C2=O [D34]

26.5
41.4
23.9
24.1
22.9
38.3

Please give inhibition at 100 µM, item by item, for the list that follows.
1. CCN(CC)CCN(CC)CC(=O)Nc1ccc(/C=C2\Cc3cc(OC)ccc3C2=O)cc1 [D40]
2. C#CCN1CCN(CC(=O)Nc2ccc(/C=C3\Cc4cc(OC)ccc4C3=O)cc2)CC1 [D10]

[41.3, 22.4]
